Measured target: Mannose-6-phosphate isomerase (Homo sapiens) (UniProt P34949)
Sequence (P34949 whole entry, looked up): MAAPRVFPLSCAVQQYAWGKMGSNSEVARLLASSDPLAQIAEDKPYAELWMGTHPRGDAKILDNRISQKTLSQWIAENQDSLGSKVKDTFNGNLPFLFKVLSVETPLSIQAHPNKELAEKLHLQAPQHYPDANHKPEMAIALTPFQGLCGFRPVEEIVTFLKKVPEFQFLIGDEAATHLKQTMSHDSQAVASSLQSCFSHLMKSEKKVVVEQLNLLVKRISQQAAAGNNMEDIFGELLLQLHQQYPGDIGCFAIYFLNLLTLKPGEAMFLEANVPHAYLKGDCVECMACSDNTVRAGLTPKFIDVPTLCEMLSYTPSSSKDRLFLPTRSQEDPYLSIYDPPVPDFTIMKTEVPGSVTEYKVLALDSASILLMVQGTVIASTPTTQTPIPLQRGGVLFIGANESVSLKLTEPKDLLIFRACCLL
Run description: inhibitors of human PMI, primary screen, biochemical, fluorescence intensity, coupled assay (AID 1209);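 further: plate controls were DMSO vehicle for no effect and wells lacking substrate for full effect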
Assay context: purified PMI enzyme, at 20 µM, hits give high values
The whole screen tested about 190,000 compounds, of which about 810 (0.43%) were called active. This excerpt belongs to a sample that is enriched for actives.
Outcome measure: inhibition (%)
Only the number, expressed in %, is required.

Mannose-6-phosphate isomerase (Homo sapiens) (UniProt P34949) data for O=C(NC1CCCCCCC1)c1ccc2c(c1)N(Cc1ccc(F)cc1)C(=O)CS2=O (stereo unspecified) ; its inhibition: 0.6

Mannose-6-phosphate isomerase (Homo sapiens) (UniProt P34949) data for COc1ccc(NC(=S)Nn2cnnc2)cc1OC ; its inhibition: 61.2

Mannose-6-phosphate isomerase (Homo sapiens) (UniProt P34949) data for Cc1cc(C)nc(NC(=O)c2csnn2)c1 ; its inhibition: -0.9

Mannose-6-phosphate isomerase (Homo sapiens) (UniProt P34949) data for Cc1cccc(C(=O)NC2CC3CCCC(C2)N3S(=O)(=O)c2ccccc2)c1 (stereo unspecified) ; its inhibition: 12.2

Mannose-6-phosphate isomerase (Homo sapiens) (UniProt P34949) data for O=C(NNC(=O)c1sccc1-n1cccc1)c1ccc(F)cc1 ; its inhibition: 0.7

Mannose-6-phosphate isomerase (Homo sapiens) (UniProt P34949) data for Cc1ccc(N=c2sc(C)c(C)n2C)cc1 ; its inhibition: -13

Mannose-6-phosphate isomerase (Homo sapiens) (UniProt P34949) data for Cc1cc(C)c(C#N)c(Cl)n1 ; its inhibition: 21

Mannose-6-phosphate isomerase (Homo sapiens) (UniProt P34949) data for S=c1[nH]nc(Cc2ccc(Br)cc2)n1/N=C/c1ccc(Cl)cc1 ; its inhibition: 51.1

Mannose-6-phosphate isomerase (Homo sapiens) (UniProt P34949) data for S=C(Nc1ccccc1)Nn1cnnc1 ; its inhibition: 48.4

Mannose-6-phosphate isomerase (Homo sapiens) (UniProt P34949) data for COCCn1c(C(=O)N2CCCC2)cc2c1C[C@H]1CN(C(=O)c3ccccc3)[C@@](Cc3ccc(F)cc3)(C(=O)OC)[C@@H]21 ; its inhibition: 13.8

Mannose-6-phosphate isomerase (Homo sapiens) (UniProt P34949) data for O=[N+]([O-])c1cc(-c2cnc3ccccc3n2)ccc1Oc1ccc(Cl)cc1 ; its inhibition: 5.9

Mannose-6-phosphate isomerase (Homo sapiens) (UniProt P34949) data for CC1CCc2c(sc(NC(=O)COC(=O)c3ccc(O)cc3)c2C#N)C1 (stereo unspecified) ; its inhibition: 2.3

Mannose-6-phosphate isomerase (Homo sapiens) (UniProt P34949) data for CC1(C)Cc2c(c(N3CCCC3)nc3sc4c(N5CCN(CCO)CC5)ncnc4c23)CO1 ; its inhibition: -22.8

Mannose-6-phosphate isomerase (Homo sapiens) (UniProt P34949) data for Cc1ccc(C(=O)Nc2ccc(SC(F)F)cc2)s1 ; its inhibition: -11.4

Mannose-6-phosphate isomerase (Homo sapiens) (UniProt P34949) data for CCC(=O)N1c2ccccc2NC2=C(C(=O)CC(C)(C)C2)C1c1cccnc1 (stereo unspecified) ; its inhibition: 7.2

Mannose-6-phosphate isomerase (Homo sapiens) (UniProt P34949) data for CCOc1cc(C(C#N)N2CCOCC2)ccc1OC (stereo unspecified) ; its inhibition: 12

Mannose-6-phosphate isomerase (Homo sapiens) (UniProt P34949) data for CCN(CC)S(=O)(=O)c1ccc2c(c1)nc(CCC(=O)Nc1ccc(N3CCOCC3)cc1)n2C ; its inhibition: 3.7

Mannose-6-phosphate isomerase (Homo sapiens) (UniProt P34949) data for COC(=O)[C@@]1(Cc2ccc(F)cc2)[C@H]2c3cc(C(=O)N4CCCC4)n(CCc4ccc(O)c(O)c4)c3C[C@H]2CN1C(=O)c1ccccc1 ; its inhibition: 50.8

Mannose-6-phosphate isomerase (Homo sapiens) (UniProt P34949) data for CCc1ccc(NC(=S)NCc2ccccc2)cc1 ; its inhibition: -2.6

Mannose-6-phosphate isomerase (Homo sapiens) (UniProt P34949) data for O=C(COC(=O)c1cc(Cl)ccc1Cl)NCCN1C(=O)CSC1=O ; its inhibition: 0.7

Mannose-6-phosphate isomerase (Homo sapiens) (UniProt P34949) data for CCOC(=O)c1ccc(N=c2scc(C)n2CC)cc1 ; its inhibition: -8.8

Mannose-6-phosphate isomerase (Homo sapiens) (UniProt P34949) data for Cc1ccc(NC(=S)Nc2ccc3nc(-c4ccccn4)c(-c4ccccn4)nc3c2)cc1C ; its inhibition: 76.2

Mannose-6-phosphate isomerase (Homo sapiens) (UniProt P34949) data for FC(F)Oc1ccc(NC(=S)Nn2cnnc2)cc1 ; its inhibition: 55.2

Mannose-6-phosphate isomerase (Homo sapiens) (UniProt P34949) data for CN(C)C(=O)CCSc1nnc(-c2ccncc2)o1 ; its inhibition: -4.7

Mannose-6-phosphate isomerase (Homo sapiens) (UniProt P34949) data for COc1ccc2[nH]c(=O)c(CN(Cc3cccs3)C(=S)Nc3ccccc3)cc2c1 ; its inhibition: 22.8

Mannose-6-phosphate isomerase (Homo sapiens) (UniProt P34949) data for O=S1(=O)N=C(Nc2nncs2)c2ccccc21 ; its inhibition: 23.3

Mannose-6-phosphate isomerase (Homo sapiens) (UniProt P34949) data for O=C(/C=C/c1c(Cl)cccc1Cl)NCCc1ccccc1 ; its inhibition: -10

Mannose-6-phosphate isomerase (Homo sapiens) (UniProt P34949) data for O=C(CN1C(=O)CCC1=O)c1ccc(-c2ccccc2)cc1 ; its inhibition: 5.6

Mannose-6-phosphate isomerase (Homo sapiens) (UniProt P34949) data for Oc1ccc(C2N=C(c3ccccc3)NC(c3ccccc3)=N2)cc1 ; its inhibition: 3.9

Mannose-6-phosphate isomerase (Homo sapiens) (UniProt P34949) data for CCOC(=O)N1CCN(C(=O)c2ccc(S(=O)(=O)NCc3ccco3)cc2)CC1 ; its inhibition: -4.2

Mannose-6-phosphate isomerase (Homo sapiens) (UniProt P34949) data for CCc1ccc(NC(=S)Nn2cnnc2)cc1 ; its inhibition: 54.2

Mannose-6-phosphate isomerase (Homo sapiens) (UniProt P34949) data for CCOC(=O)c1ccc(NC(=O)CSCC(=O)OCC(=O)c2ccccc2)cc1 ; its inhibition: 19.6

Mannose-6-phosphate isomerase (Homo sapiens) (UniProt P34949) data for O=C(Nc1ccccc1NS(=O)(=O)c1ccc(F)cc1)C1CCCC1 ; its inhibition: -1.7

Mannose-6-phosphate isomerase (Homo sapiens) (UniProt P34949) data for COc1ccc(NC(=S)NN2CCN(C)CC2)cc1OC ; its inhibition: 22.9

Mannose-6-phosphate isomerase (Homo sapiens) (UniProt P34949) data for CSc1ccc(/C=N/n2c(Cc3ccc(Br)cc3)n[nH]c2=S)cc1 ; its inhibition: 14.5

Mannose-6-phosphate isomerase (Homo sapiens) (UniProt P34949) data for Cc1ccc(NC(=S)Nn2cnnc2)cc1 ; its inhibition: 61.8

Mannose-6-phosphate isomerase (Homo sapiens) (UniProt P34949) data for CC1CC1C(=O)Nc1cc(S(=O)(=O)N2CCOCC2)ccc1N1CCCC1 (stereo unspecified) ; its inhibition: -3.9

Mannose-6-phosphate isomerase (Homo sapiens) (UniProt P34949) data for CCCCCCn1c(=O)[nH]c2nc3cc(N)c(C)cc3nc2c1=O ; its inhibition: 35.2

Mannose-6-phosphate isomerase (Homo sapiens) (UniProt P34949) data for Cc1ccc(C(=O)NC(=S)Nn2cnnc2)cc1 ; its inhibition: 12.4

Mannose-6-phosphate isomerase (Homo sapiens) (UniProt P34949) data for CCCCNc1nc(NC)nc(Cl)c1SC ; its inhibition: 0.4

Mannose-6-phosphate isomerase (Homo sapiens) (UniProt P34949) data for Cc1ccc(N=C2CSC(=O)N2)cc1 ; its inhibition: 8.6

Mannose-6-phosphate isomerase (Homo sapiens) (UniProt P34949) data for CN1CCN(c2ccc(NC(=O)c3ccc(-c4ccc(Br)cc4)o3)cc2)CC1 ; its inhibition: -0.8

Mannose-6-phosphate isomerase (Homo sapiens) (UniProt P34949) data for COC(=O)[C@@]1(Cc2ccc(F)cc2)[C@H]2c3cc(C(=O)N4CCCC4)n(CCO)c3C[C@H]2CN1C(=O)c1ccccc1 ; its inhibition: 1.6

Mannose-6-phosphate isomerase (Homo sapiens) (UniProt P34949) data for Cc1cc(C)n(-c2nc3ccccc3n3cnnc23)n1 ; its inhibition: -2.9

Mannose-6-phosphate isomerase (Homo sapiens) (UniProt P34949) data for Cc1cc(C)nc(/N=c2/ssnc2Cl)c1 ; its inhibition: 60.1

Mannose-6-phosphate isomerase (Homo sapiens) (UniProt P34949) data for Cc1cc2nc3c(=O)n(C4CCCCC4)c(=O)[nH]c3nc2cc1N ; its inhibition: 51.7

Data origin, for the record: PubChem BioAssay AID1209
